The values you see were collected from ChEMBL document CHEMBL1287688.

- study-target: Glutamate NMDA receptor; GRIN1/GRIN2B (Homo sapiens, UniProt Q05586+Q13224)
- Sequence (Q13224 whole entry, other chains not shown): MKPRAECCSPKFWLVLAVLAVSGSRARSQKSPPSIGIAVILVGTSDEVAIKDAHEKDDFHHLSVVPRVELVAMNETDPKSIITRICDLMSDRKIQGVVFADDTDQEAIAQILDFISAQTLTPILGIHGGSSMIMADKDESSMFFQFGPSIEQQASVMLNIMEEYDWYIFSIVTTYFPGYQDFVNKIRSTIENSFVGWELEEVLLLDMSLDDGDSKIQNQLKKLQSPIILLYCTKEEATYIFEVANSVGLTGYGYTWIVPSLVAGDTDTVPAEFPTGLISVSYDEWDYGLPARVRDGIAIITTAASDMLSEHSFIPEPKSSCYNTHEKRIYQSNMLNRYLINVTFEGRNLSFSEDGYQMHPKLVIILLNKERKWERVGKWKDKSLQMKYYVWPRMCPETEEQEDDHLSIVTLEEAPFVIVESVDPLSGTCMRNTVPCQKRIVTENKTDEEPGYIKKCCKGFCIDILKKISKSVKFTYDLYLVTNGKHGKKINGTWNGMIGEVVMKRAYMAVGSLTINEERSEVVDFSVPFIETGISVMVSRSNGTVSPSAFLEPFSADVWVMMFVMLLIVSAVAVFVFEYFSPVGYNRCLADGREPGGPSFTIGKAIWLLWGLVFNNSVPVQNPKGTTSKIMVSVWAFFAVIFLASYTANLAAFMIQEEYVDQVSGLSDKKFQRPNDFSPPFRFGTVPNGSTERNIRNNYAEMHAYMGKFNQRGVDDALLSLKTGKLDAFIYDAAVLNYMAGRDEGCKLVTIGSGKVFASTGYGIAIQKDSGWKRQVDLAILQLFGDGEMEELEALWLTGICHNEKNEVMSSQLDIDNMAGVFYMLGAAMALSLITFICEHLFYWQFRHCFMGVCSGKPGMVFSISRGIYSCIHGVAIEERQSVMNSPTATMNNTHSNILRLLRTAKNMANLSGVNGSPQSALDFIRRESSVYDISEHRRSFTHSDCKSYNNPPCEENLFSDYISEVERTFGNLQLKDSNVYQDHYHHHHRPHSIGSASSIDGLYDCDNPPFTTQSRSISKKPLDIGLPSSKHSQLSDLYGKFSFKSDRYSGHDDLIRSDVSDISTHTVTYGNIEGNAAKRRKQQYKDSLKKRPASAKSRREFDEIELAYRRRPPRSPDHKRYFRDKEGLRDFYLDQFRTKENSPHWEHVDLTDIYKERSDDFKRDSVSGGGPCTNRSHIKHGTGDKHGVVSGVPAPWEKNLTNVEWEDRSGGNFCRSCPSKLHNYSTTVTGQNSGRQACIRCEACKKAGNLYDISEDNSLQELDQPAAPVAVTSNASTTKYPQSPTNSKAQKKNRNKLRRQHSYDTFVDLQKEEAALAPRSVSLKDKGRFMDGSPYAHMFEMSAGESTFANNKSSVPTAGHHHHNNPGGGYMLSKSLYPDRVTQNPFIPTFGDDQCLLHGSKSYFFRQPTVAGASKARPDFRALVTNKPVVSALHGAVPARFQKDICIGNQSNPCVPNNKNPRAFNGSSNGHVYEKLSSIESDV
- assay-details: Antagonist activity at human recombinant NR1-1a/NR2B receptor expressed in mouse L(tk-) cells assessed as inhibition of (S)-glutamate/glycine-stimulated excitotoxicity treated 30 mins before (S)-glutamate/glycine challenge measured after 4 hrs by LDH release assay
pIC50: −log10 of the molar value.
The compounds listed here are annotated with their pIC50.

compound: COc1ccc2c(c1)CCN(CCCCc1ccccc1)CC2O (stereo not drawn)
pIC50: 6.44
--
compound: Oc1ccc2c(c1)CCN(CCCCc1ccccc1)CC2O (racemic)
pIC50: 7.74
--
compound: Oc1ccc2c(c1)CCN([C@H]1CC[C@@H](c3ccccc3)CC1)CC2O (mixture of isomers)
pIC50: 4.92

----------
Reported log10 of Ki by item:
- assay-details: Displacement of [3H]di-o-tolylguanidine from sigma2 receptor rat liver membranes after 180 mins scintillation counting
- Type: cell membranes, Membrane
observed-property: log10 of Ki (log10 of the value in nM)

compound: OC1CN(CCCSc2ccccc2)CCc2cc(OCc3ccccc3)ccc21 (racemic)
log10 of Ki: 2.81

compound: Oc1ccc2c(c1)CCN(CCCOc1ccccc1)CC2O (racemic)
log10 of Ki: 0.77

compound: COc1ccc(C(=O)CCCN2CCc3cc(OCc4ccccc4)ccc3C(O)C2)cc1 (racemic)
log10 of Ki: 3.65

compound: OC1CN(CCCOc2ccccc2)CCc2cc(OCc3ccccc3)ccc21 (racemic)
log10 of Ki: 2.98

compound: O=C(CCCN1CCc2cc(O)ccc2C(O)C1)c1ccc(F)cc1 (racemic)
log10 of Ki: 1.52

compound: OC1CN(CCCCc2ccccc2)CCc2cc(OCc3ccccc3)ccc21 (racemic)
log10 of Ki: 3.02

compound: O=C(CCCN1CCc2cc(OCc3ccccc3)ccc2C(O)C1)c1ccc(F)cc1 (racemic)
log10 of Ki: 3.02

compound: Oc1ccc2c(c1)CCN(C1CCC3(CC1)OCCO3)CC2O (racemic)
log10 of Ki: 2.82

compound: OC1CN(Cc2ccc(N3CCCCC3)cc2)CCc2cc(OCc3ccccc3)ccc21 (racemic)
log10 of Ki: 3.81

compound: Oc1ccc2c(c1)CCN(CCCCc1ccccc1)CC2O (racemic)
log10 of Ki: 4.26

compound: CC1(C)COC(CCCN2CCc3cc(OCc4ccccc4)ccc3C(O)C2)(c2ccc(C(C)(C)C)cc2)OC1 (racemic)
log10 of Ki: 2.95

compound: O=S(=O)(CCCN1CCc2cc(O)ccc2C(O)C1)c1ccccc1 (racemic)
log10 of Ki: 2.81

----------
- study-target: Sigma non-opioid intracellular receptor 1 (Cavia porcellus)
- Sequence (Q60492 whole entry): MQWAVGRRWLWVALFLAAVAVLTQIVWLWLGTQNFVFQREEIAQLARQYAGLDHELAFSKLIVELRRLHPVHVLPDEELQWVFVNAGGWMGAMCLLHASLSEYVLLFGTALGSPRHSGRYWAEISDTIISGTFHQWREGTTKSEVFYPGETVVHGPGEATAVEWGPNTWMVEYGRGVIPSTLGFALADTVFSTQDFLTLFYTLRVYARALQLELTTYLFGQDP
- assay-details: Displacement of [3H](+)-pentazocine from sigma1 receptor guinea pig brain after 180 mins scintillation counting
observed-property: Ki (nM)

compound: Oc1ccc2c(c1)CCN([C@H]1CC[C@H](c3ccccc3)CC1)CC2O (mixture of isomers)
study-target: Sigma non-opioid intracellular receptor 1 (Cavia porcellus)
readout-units: nM
relation-operator: =
recorded-measurement: 200
//
compound: OC1CN([C@H]2CC[C@H](c3ccccc3)CC2)CCc2cc(OCc3ccccc3)ccc21 (some centres undefined)
study-target: Sigma non-opioid intracellular receptor 1 (Cavia porcellus)
readout-units: nM
relation-operator: =
recorded-measurement: 386
//
compound: CN(Cc1ccccc1)C(=O)CN1CCc2cc(OCc3ccccc3)ccc2C(O)C1 (racemic)
study-target: Sigma non-opioid intracellular receptor 1 (Cavia porcellus)
readout-units: nM
relation-operator: >
recorded-measurement: 1000
//
compound: CC(C)(C)c1ccc(C(=O)CCCN2CCc3cc(OCc4ccccc4)ccc3C(O)C2)cc1 (racemic)
study-target: Sigma non-opioid intracellular receptor 1 (Cavia porcellus)
readout-units: nM
relation-operator: >
recorded-measurement: 1000
//
compound: O=C(c1ccccc1)N1CCC(N2CCc3cc(O)ccc3C(O)C2)CC1 (racemic)
study-target: Sigma non-opioid intracellular receptor 1 (Cavia porcellus)
readout-units: nM
relation-operator: >
recorded-measurement: 1000
//
compound: OC1CN([C@H]2CC[C@@H](c3ccccc3)CC2)CCc2cc(OCc3ccccc3)ccc21 (some centres undefined)
study-target: Sigma non-opioid intracellular receptor 1 (Cavia porcellus)
readout-units: nM
relation-operator: =
recorded-measurement: 10
//
compound: Oc1ccc2c(c1)CCN(CCCOc1ccccc1)CC2O (racemic)
study-target: Sigma non-opioid intracellular receptor 1 (Cavia porcellus)
readout-units: nM
relation-operator: =
recorded-measurement: 170
//
compound: O=C(CCCN1CCc2cc(OCc3ccccc3)ccc2C(O)C1)c1ccc(F)cc1 (racemic)
study-target: Sigma non-opioid intracellular receptor 1 (Cavia porcellus)
readout-units: nM
relation-operator: =
recorded-measurement: 293
//
compound: Oc1ccc2c(c1)CCN(C1CCC3(CC1)OCCO3)CC2O (racemic)
study-target: Sigma non-opioid intracellular receptor 1 (Cavia porcellus)
readout-units: nM
relation-operator: >
recorded-measurement: 1000
